Target sequence: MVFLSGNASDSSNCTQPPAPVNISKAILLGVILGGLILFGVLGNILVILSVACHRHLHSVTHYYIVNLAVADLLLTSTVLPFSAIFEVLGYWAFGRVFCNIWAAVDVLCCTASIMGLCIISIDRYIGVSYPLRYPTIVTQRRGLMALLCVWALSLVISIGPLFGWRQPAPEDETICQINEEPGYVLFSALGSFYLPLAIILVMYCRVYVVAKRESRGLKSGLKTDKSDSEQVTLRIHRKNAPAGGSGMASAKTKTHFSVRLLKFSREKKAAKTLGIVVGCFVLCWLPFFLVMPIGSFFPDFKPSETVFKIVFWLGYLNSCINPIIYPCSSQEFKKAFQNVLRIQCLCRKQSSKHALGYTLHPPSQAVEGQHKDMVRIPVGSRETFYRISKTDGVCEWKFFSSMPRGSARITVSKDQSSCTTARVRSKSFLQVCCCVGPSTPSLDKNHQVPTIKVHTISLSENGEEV
pKi: −log10 of the molar value.
readout kind: pKi

I. Clc1ccc(C2(Cn3ccnc3)OCC(CN3CCN(CCc4ccccc4)CC3)O2)c(Cl)c1 (stereo not drawn)
II. Nc1ccc(C(=O)NCCN2CCC(c3cccc4[nH]ccc34)CC2)cc1
III. COc1ccccc1N1CCN(CCCNc2cc(O)nc(Nc3c(Cl)cccc3Cl)n2)CC1
Prompt: Ascending by pKi, please. Returns: the labels listed in the requested order.
Completion: I, II, III
